- TARGET_DESC: Cellular tumor antigen p53 (Homo sapiens)
- ASSAY_NOTES: TOX21_p53_BLA_p4_ratio: Tox21 HCT-116 p53 Agonism Beta-lactamase Assay, Ratio, Phase 4 (AID 2283601)
Inconclusive results are not listed. Active and inactive are the calls of the source. Rule for the calls: active = hit-call score of the fitted dose curve at least 0.9, where 1 is the maximum; inconclusive = response in the unintended direction; inactive = score below 0.9.
The categories you may choose from are 1 (active), 0 (inactive)

>  <MOLECULE>
CN1CCC(=C2c3ccccc3C=Cc3ccccc32)CC1

>  <CLASS_ASSIGNMENT>
0

$$$$

Outcome logged for `CCCCCCCCS(=O)(=O)Cl` in this assay:
0

Can you check `COc1cc(NS(=O)(=O)c2ccc(N)cc2)ncn1` next?
0

Again, but for `CC(=O)Nc1cccc(C)c1`
0

Follow-up item: CC1CCc2cc(F)cc3c(=O)c(C(=O)O)cn1c23 (stereo not drawn)
0

Cited source: PubChem BioAssay (EPA / NIEHS)
